All figures here come from patent US20250134146A1.

Target: T1R sweet taste receptor (Homo sapiens, UniProt Q7RTX0+Q8TE23)
Assay: in vitro cell-based assay, cells overexpressing the T1R sweet taste receptor; sweet dose-response curves
Conditions: cells that overexpress the T1R sweet taste receptor; calculated from sweet dose-response curves
pEC50: −log10 of the molar value.
Think of 6 as a floor: if pEC50 stands on it or above, it is y; beneath it, n.

COC1C(=O)c2c(O)cccc2OC1c1ccc(O)cc1 (stereo not drawn): n

Req: Could you please find out whether COc1ccc([C@@H]2Oc3cc(O)ccc3C(=O)[C@H]2OC)cc1O (racemic) [Compound 107] has pEC50 that meets 6 or exceeds it?
Resp: n

Req: Could you please find out whether CO[C@@H]1C(=O)c2ccc(O)cc2O[C@H]1c1ccc(O)cc1 (relative stereo) has pEC50 that meets 6 or exceeds it?
Resp: n

Req: Could you please find out whether COc1ccc([C@H]2Oc3cc(O)ccc3C(=O)[C@@H]2OC)cc1O (stereo in doubt) has pEC50 that meets 6 or exceeds it?
Resp: n

* * *

Test system: Human Panelists
Experiment: sensory evaluation of sweetness intensity relative to 1.5% sucrose solution (Threshold Concentration)
Assay type: in vivo
Details: highest concentration judged less sweet than 1.5% sucrose solution; value in brackets; trained sensory panel of at least 8 panelists
Param label: returns label 1 when Threshold Concentration (TC) - less sweet than 1.5% sucrose < 10 µM, returns label 0 otherwise, including exact equality.

COc1ccc([C@@H]2Oc3cc(O)ccc3C(=O)[C@H]2OC)cc1O (racemic) [Compound 107]: label 0
CO[C@@H]1C(=O)c2c(O)cc(O)cc2O[C@H]1c1ccc(O)cc1 (racemic) [Compound 101]: label 0

Req: Does the reported Threshold Concentration (TC) - less sweet than 1.5% sucrose of the following compound sit strictly below 10 µM? COc1ccc([C@@H]2Oc3cc(O)cc(O)c3C(=O)[C@H]2OC)cc1O (racemic) [Compound 102]
Resp: label 0

Req: Does the reported Threshold Concentration (TC) - less sweet than 1.5% sucrose of the following compound sit strictly below 10 µM? COc1ccc([C@H]2Oc3cc(O)ccc3C(=O)[C@@H]2OC)cc1O (stereo in doubt) [Compound 128]
Resp: label 0

Req: Does the reported Threshold Concentration (TC) - less sweet than 1.5% sucrose of the following compound sit strictly below 10 µM? COc1ccc([C@@H]2Oc3cccc(O)c3C(=O)[C@H]2OC)cc1O (racemic) [Compound 105]
Resp: label 1

Req: Does the reported Threshold Concentration (TC) - less sweet than 1.5% sucrose of the following compound sit strictly below 10 µM? COc1ccc([C@H]2Oc3cc(O)cc(O)c3C(=O)[C@@H]2OC)cc1O (single isomer, unassigned) [Compound 122]
Resp: label 1

Req: Does the reported Threshold Concentration (TC) - less sweet than 1.5% sucrose of the following compound sit strictly below 10 µM? CO[C@H]1C(=O)c2c(O)cc(O)cc2O[C@@H]1c1ccc(O)cc1 (stereo in doubt) [Compound 124]
Resp: label 0

* * *

# EC50 per entry
Target: T1R sweet taste receptor (Homo sapiens, UniProt Q7RTX0+Q8TE23)
Sequence (Q8TE23 20-839): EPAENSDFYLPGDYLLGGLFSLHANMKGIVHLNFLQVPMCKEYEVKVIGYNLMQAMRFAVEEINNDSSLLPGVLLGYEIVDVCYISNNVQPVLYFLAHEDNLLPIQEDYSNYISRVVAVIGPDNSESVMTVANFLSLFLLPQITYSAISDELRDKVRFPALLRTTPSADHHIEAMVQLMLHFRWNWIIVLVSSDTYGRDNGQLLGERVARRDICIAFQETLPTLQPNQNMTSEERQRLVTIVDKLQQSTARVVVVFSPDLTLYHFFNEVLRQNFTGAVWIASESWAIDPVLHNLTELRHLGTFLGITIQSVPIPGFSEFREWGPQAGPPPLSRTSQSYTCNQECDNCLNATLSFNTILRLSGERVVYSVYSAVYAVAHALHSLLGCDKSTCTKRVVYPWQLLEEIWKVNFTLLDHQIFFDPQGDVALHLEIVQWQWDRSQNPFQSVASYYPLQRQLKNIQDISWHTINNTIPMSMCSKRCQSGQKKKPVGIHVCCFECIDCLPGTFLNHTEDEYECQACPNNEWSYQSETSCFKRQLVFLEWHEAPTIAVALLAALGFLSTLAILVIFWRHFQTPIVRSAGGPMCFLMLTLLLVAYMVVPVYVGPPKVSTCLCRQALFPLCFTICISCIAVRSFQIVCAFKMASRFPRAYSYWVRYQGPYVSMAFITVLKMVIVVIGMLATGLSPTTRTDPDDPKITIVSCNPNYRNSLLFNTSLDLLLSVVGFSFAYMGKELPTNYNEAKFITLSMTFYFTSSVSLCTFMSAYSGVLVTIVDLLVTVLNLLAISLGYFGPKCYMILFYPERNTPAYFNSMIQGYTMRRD
Sequence (Q7RTX0 21-852): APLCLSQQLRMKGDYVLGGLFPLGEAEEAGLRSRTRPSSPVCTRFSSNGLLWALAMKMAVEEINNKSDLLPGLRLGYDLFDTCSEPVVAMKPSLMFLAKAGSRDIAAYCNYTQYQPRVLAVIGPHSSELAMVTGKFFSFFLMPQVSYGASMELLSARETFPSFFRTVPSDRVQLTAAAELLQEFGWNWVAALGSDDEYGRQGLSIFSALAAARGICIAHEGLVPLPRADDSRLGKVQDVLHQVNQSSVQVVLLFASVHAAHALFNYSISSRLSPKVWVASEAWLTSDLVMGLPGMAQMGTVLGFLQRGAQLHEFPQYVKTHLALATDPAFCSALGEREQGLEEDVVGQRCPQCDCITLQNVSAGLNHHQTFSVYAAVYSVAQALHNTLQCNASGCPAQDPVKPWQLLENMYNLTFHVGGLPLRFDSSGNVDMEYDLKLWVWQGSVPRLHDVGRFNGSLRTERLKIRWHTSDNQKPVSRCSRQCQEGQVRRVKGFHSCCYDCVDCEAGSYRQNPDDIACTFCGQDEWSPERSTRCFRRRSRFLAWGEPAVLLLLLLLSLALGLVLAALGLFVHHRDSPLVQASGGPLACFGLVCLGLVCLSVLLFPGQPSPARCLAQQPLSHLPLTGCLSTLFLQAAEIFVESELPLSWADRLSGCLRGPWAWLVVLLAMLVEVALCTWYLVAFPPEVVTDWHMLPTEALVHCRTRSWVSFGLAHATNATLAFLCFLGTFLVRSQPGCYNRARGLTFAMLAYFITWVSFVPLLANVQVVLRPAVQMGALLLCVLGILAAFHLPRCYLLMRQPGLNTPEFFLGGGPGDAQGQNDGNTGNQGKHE
Assay: in vitro cell-based assay, cells overexpressing the T1R sweet taste receptor; sweet dose-response curves
Details: cells that overexpress the T1R sweet taste receptor; calculated from sweet dose-response curves
Please give a number only; it is taken to be in nM.

Req: Answer with the recorded EC50 of COc1ccc([C@@H]2Oc3cc(O)cc(O)c3C(=O)[C@H]2OC)cc1O (racemic) [Compound 102] only.
Resp: 1000

* * *

Target: T1R sweet taste receptor (Homo sapiens, UniProt Q7RTX0+Q8TE23)
Sequence (Q8TE23 20-839): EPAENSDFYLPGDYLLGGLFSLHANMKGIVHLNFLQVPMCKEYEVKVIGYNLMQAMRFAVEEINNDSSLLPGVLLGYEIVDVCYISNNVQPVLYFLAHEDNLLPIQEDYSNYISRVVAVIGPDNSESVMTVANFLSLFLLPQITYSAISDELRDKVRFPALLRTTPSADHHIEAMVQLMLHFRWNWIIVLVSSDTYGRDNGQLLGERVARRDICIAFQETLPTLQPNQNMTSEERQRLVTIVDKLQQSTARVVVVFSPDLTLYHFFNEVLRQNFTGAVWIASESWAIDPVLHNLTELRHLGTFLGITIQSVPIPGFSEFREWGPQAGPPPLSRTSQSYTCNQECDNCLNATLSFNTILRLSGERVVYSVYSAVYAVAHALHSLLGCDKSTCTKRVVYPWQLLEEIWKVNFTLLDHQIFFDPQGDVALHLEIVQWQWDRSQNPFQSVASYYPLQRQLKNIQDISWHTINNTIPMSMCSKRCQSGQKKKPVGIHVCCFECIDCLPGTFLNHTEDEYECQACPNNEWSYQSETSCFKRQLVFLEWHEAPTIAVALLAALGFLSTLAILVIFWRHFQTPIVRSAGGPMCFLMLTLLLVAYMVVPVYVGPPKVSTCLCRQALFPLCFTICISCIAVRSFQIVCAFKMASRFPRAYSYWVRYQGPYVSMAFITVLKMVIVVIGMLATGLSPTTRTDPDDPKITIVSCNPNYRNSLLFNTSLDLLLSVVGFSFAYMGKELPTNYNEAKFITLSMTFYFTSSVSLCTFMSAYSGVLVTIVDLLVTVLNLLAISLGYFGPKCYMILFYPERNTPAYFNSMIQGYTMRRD
Sequence (Q7RTX0 21-852): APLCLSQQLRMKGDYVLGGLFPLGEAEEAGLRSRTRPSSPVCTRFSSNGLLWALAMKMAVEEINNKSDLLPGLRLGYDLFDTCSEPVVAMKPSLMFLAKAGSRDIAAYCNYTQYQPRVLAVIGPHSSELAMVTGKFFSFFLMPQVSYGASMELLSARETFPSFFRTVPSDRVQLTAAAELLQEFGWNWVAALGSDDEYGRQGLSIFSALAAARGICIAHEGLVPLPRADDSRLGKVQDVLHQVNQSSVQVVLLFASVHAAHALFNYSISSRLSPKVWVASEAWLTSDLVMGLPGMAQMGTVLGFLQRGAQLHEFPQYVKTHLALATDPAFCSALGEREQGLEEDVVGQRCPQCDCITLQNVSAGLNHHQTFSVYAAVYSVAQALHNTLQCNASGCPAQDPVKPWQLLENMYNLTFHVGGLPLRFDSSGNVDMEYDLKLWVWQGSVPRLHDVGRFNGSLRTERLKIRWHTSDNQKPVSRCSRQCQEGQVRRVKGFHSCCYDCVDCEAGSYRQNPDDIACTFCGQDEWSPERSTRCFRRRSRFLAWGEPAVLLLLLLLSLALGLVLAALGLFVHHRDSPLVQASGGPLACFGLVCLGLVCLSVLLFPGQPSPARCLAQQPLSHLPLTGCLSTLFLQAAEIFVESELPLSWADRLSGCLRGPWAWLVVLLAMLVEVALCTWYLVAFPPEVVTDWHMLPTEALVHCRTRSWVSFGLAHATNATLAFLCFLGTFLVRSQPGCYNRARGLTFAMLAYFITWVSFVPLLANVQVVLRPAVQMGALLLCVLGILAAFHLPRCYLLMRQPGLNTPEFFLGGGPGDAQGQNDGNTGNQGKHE
Experiment: in vitro cell-based assay, cells overexpressing the T1R sweet taste receptor; sweet dose-response curves
Settings: cells that overexpress the T1R sweet taste receptor; calculated from sweet dose-response curves
Measured Metric: pEC50
Scale: negative log10 of molar concentration, which is what pEC50 denotes.

Would you please look over these solved cases?
CO[C@H]1C(=O)c2c(O)cc(O)cc2O[C@@H]1c1ccc(O)cc1 (stereo in doubt): 5.00
CCO[C@@H]1C(=O)c2c(O)cc(O)cc2O[C@H]1c1ccc(O)cc1 (relative stereo): 4.52
CCOC1C(=O)c2ccc(O)cc2OC1c1ccc(OC)c(O)c1 (stereo not shown): 5.10

Req: Give measured pEC50 for CO[C@@H]1C(=O)c2c(O)cc(O)cc2O[C@H]1c1cc(O)c(O)c(O)c1 (relative stereo) (T1R sweet taste receptor (Homo sapiens, UniProt Q7RTX0+Q8TE23)).
Resp: 3.74

Req: Give measured pEC50 for COc1ccc([C@@H]2Oc3cccc(O)c3C(=O)[C@H]2OC)cc1O (relative stereo) [Compound 127] (T1R sweet taste receptor (Homo sapiens, UniProt Q7RTX0+Q8TE23)).
Resp: 6.00

Req: Give measured pEC50 for COc1ccc([C@H]2Oc3cccc(O)c3C(=O)[C@@H]2OC)cc1O (stereo in doubt) (T1R sweet taste receptor (Homo sapiens, UniProt Q7RTX0+Q8TE23)).
Resp: 7.52

Req: Give measured pEC50 for COc1ccc([C@H]2Oc3cc(O)cc(O)c3C(=O)[C@@H]2OC)cc1O (single isomer, unassigned) (T1R sweet taste receptor (Homo sapiens, UniProt Q7RTX0+Q8TE23)).
Resp: 6.15

Req: Give measured pEC50 for CCO[C@@H]1C(=O)c2c(O)cc(O)cc2O[C@H]1c1ccc(OC)c(O)c1 (relative stereo) (T1R sweet taste receptor (Homo sapiens, UniProt Q7RTX0+Q8TE23)).
Resp: 6.00

Req: Give measured pEC50 for COc1ccc([C@@H]2Oc3cccc(O)c3C(=O)[C@H]2OC)cc1O (racemic) [Compound 105] (T1R sweet taste receptor (Homo sapiens, UniProt Q7RTX0+Q8TE23)).
Resp: 7.00

Req: Give measured pEC50 for COc1cc(O)c2c(c1)O[C@@H](c1ccc(OC)c(O)c1)[C@H](OC)C2=O (relative stereo) (T1R sweet taste receptor (Homo sapiens, UniProt Q7RTX0+Q8TE23)).
Resp: 4.60

Req: Give measured pEC50 for CCO[C@@H]1C(=O)c2c(O)cccc2O[C@H]1c1ccc(OC)c(O)c1 (relative stereo) (T1R sweet taste receptor (Homo sapiens, UniProt Q7RTX0+Q8TE23)).
Resp: 6.40
